test system: MOLT-4 leukemia; assay: NCI tumour cell line growth inhibition, 48 h; in the data active = GI50 below about 0.43 µM; inactive = the rest
Respond only with the outcome that fits, drawn from 1 (active), -1 (inactive)

The following compounds have reported results that may help.
[
  {
    "COMPOUND": "CCN(CC)S(=O)(=O)c1ccc(-c2nc(C(Cl)Cl)nc3cc(-c4ccc(F)cc4)nn23)cc1",
    "TARGET_OR_TEST_SYSTEM": "MOLT-4 leukemia",
    "DISCRETE_LABEL": -1
  },
  {
    "COMPOUND": "CCCCCCNC(=O)Oc1ccc(/C(=C(/C)c2ccc(Cl)cc2)c2ccc(OCCN3CCCC3)cc2)cc1",
    "TARGET_OR_TEST_SYSTEM": "MOLT-4 leukemia",
    "DISCRETE_LABEL": -1
  },
  {
    "COMPOUND": "CCN(CC)c1ccc2c(c1)Oc1nc(N)c(C#N)c(N)c1C2Sc1ccc(F)cc1 (centres undefined)",
    "TARGET_OR_TEST_SYSTEM": "MOLT-4 leukemia",
    "DISCRETE_LABEL": 1
  }
]

Consider now this further compound.
Ask: Hey, what did the test say about COc1ccc(C(C)=C(c2ccc(OCCN(C)C)cc2)c2ccc(OCCN(C)C)cc2)cc1 ?
Result: -1
